The reported measurements were obtained from ChEMBL document CHEMBL3039007.

Target: Solute carrier organic anion transporter family member 1B3 (Homo sapiens, UniProt Q9NPD5)
Sequence (Q9NPD5 whole entry): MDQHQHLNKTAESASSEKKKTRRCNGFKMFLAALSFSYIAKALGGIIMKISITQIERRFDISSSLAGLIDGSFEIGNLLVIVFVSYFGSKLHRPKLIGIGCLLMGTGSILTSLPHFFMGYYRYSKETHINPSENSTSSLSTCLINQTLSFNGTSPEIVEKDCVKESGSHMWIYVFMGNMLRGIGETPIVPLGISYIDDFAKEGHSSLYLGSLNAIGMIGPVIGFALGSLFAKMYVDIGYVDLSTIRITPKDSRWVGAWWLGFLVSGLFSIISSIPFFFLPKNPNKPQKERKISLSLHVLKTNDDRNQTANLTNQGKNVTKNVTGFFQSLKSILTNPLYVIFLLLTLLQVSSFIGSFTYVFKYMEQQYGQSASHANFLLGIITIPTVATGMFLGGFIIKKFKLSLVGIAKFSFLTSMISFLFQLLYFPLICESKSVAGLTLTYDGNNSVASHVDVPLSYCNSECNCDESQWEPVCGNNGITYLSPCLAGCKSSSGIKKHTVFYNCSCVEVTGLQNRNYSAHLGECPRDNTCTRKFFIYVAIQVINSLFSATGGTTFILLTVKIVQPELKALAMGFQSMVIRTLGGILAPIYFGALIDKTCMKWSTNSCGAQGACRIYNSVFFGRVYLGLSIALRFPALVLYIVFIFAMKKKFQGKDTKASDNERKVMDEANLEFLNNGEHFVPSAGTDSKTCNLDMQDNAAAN
Settings: chinese hamster, cho, 10 µM
ENDPOINT_NAME: residual activity (%)
Give bare numbers, in %.

Use these answered entries as a reference point.
C[C@H]1CCCC(=O)CCC/C=C/c2cc(O)cc(O)c2C(=O)O1 :: 91.51
COc1c(-c2coc3cc4c(cc3c2=O)CC(OC(C)=O)C(C)(C)O4)ccc2c1C=CC(C)(C)O2 (centres undefined) [MUNDULONE ACETATE] :: 87.47

State the recorded residual activity for every item in the following list.
1. C=C1C2CC[C@H]3[C@]4(C)C[C@H](O[C@H]5O[C@H](CO)[C@@H](OS(=O)(=O)[O-])[C@H](OS(=O)(=O)[O-])[C@H]5OC(=O)CC(C)C)C[C@@H](C(=O)O)[C@H]4CC[C@]3(C2)[C@H]1O.[K+].[K+]
2. COC1=CC(=O)C(O)=C/C1=C\C=C\c1ccccc1

1: 92.24; 2: 88.38

====

Give measured residual activity for each item. Keep answers brief.
Target: Solute carrier organic anion transporter family member 1B3 (Homo sapiens)
Details: chinese hamster, cho, 10 µM
Give bare numbers, in %.

NC(=O)c1ncn([C@@H]2O[C@H](CO)[C@@H](O)[C@H]2O)n1 :: 87.39
COC(=O)C[C@H]1C(C)(C)[C@]2(Cl)O[C@@]34CC2C(=O)[C@]1(C)C3CC[C@]1(C)C4=CC(=O)O[C@H]1c1ccoc1 (stereo partly drawn) :: 88.12

Next item in the queue.
State the measured residual activity (Solute carrier organic anion transporter family member 1B3 (Homo sapiens)) of C[n+]1cc2c3c(ccc2c2ccc4cc5c(cc4c21)OCO5)OCO3.O=S(=O)([O-])O [SANGUINARINE SULFATE]
92.42

====

Target: Solute carrier organic anion transporter family member 1B3 (Homo sapiens)
Conditions: chinese hamster, cho, 10 µM
If the reported residual activity equals or exceeds 90%, assign true (1). If not, assign false (0).

API: above_or_equal(metric=residual activity, cutoff=90%) for item O=C(O)C1CCCNC1 (stereo not drawn) [NIPECOTIC ACID]
true (1)

Quick check, residual activity >= 90%? C=C[C@H]1CN2CC[C@H]1C[C@H]2[C@H](OC(=O)OCC)c1ccnc2ccc(OC)cc12 [QUININE ETHYLCARBONATE]
false (0)

Is reported residual activity greater than or equal to 90% here: CC1=C(/C=C/C(C)=C/C=C/C(C)=C/C=C/C=C(C)/C=C/C=C(C)/C=C/C2=C(C)C(=O)[C@@H](O)CC2(C)C)C(C)(C)C[C@H](O)C1=O [ASTAXANTHIN]
false (0)

Is it the case that Nc1ccc(S(=O)(=O)Nc2ccccn2)cc1 [SULFAPYRIDINE] has residual activity reaching or exceeding 90%?
true (1)

State whether the measured residual activity reaches 90%, counting equality as reaching it, for CCCCc1nc(Cl)c(CO)n1Cc1ccc(-c2ccccc2-c2nn[nH]n2)cc1 [LOSARTAN]
false (0)

Determine whether measured residual activity meets or exceeds 90% for COc1ccc(CC2c3cc(OC)c(OC)cc3CCN2C)cc1OC (stereo not drawn) [LAUDANOSINE]
true (1)

Reported residual activity at or above 90%? COc1c(N2C[C@@H]3CCCN[C@@H]3C2)c(F)cc2c(=O)c(C(=O)O)cn(C3CC3)c12.Cl [MOXIFLOXACIN HYDROCHLORIDE]
true (1)
